assay: small-molecule binders of probe aInhba, primary screen, biochemical, small-molecule microarray, 635/667 nm fluorescence (AID 1148); details: higher = more signal;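 also: score merges 667nm spot fluorescence with signal-to-noise for antibody binding to printed compounds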
Here the recorded composite z-score is given for each entry.
// keep it numeric: no unit symbol after the value

Field: example entries. Status: answers known.
COMPOUND: C=C(CCCC)/C(=C/C[C@@H](OC(=O)c1ccncc1)c1ccccc1OCCO)c1cnc2ccccc2c1
composite z-score: 0.11
//
COMPOUND: COC(=O)[C@@]1(Cc2ccc(F)cc2)[C@H]2c3cc(C(=O)N(C)C)n(Cc4cc(F)cc5c4OCOC5)c3C[C@H]2CN1C(=O)c1ccccc1
composite z-score: 0.115
//
COMPOUND: C=CCN1C(=O)[C@@]2(O[C@@H](CCn3cc([C@H](O)c4ccccc4)nn3)[C@H]([Si](C)(C)c3ccc(OC)cc3)[C@H]2C)c2cc(N3CCC3=O)ccc21
composite z-score: -0.154
//
COMPOUND: C=CCC(OC(C)=O)[C@@H]1[C@@H](N(Cc2cc3ccccc3o2)C(=O)Cc2ccc(F)cc2)c2cc(OCCCO)ccc2N1C(=O)c1ccc2ccccc2c1 (some centres not stated)
composite z-score: -0.176
//
COMPOUND: C=C(COC)/C(=C/C[C@H](OC(C)=O)c1ccc(OCCO)cc1)c1cc(C(=O)OC)ccc1OC
composite z-score: 0.0566
//
COMPOUND: O=C(N1CCCCC1)[C@@]1(CCS(=O)(=O)c2ccccc2)COC(c2ccc(OCCCO)cc2)=N1
composite z-score: 0.421

// below: composite z-score requested for another compound
[in] Consider the compound `CN(C)C(=O)[C@@]1(CCS(=O)(=O)c2ccccc2)N=C(c2ccc(OCCCO)cc2)O[C@H]1c1ccccc1` and give its recorded composite z-score.
[out] 0.0155

====

assay: small-molecule binders of probe aNOTCH2, primary screen, biochemical, small-molecule microarray, 635/667 nm fluorescence (AID 1121); settings: higher = more signal;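 also: score merges feature fluorescence read at 667 nm with its signal to noise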
VALUE_TYPE: composite z-score
// keep it numeric: no unit symbol after the value

MOLECULE: CCOC(=O)c1ccc(NC(=O)O[C@H]2[C@H](OC(=O)Nc3ccc4c(c3)OCO4)[C@H](OC(=O)Nc3ccc4c(c3)OCO4)[C@@H](OC)O[C@@H]2CO)cc1
composite z-score: 0.077

[in] Consider the molecule `CC1=C[C@@]2(CO)C(=O)[C@]3(CO3)[C@@H]1[C@H]1[C@]2(C)C=C(CO)C(=O)[C@]12CO2` and give its recorded composite z-score.
[out] -0.0795

[in] Consider the molecule CN1C(=O)C2C=CC(C(O)C#Cc3ccccc3)N(Nc3ccccc3)C2C1=O (stereo unspecified) and give its recorded composite z-score.
[out] 0.0363

[in] Consider the molecule `COc1ccc([Si](C)(C)[C@H]2[C@H](CC(=O)N(CCO)Cc3ccccc3)O[C@@]3(C(=O)N(Cc4cccc(N5CCOC5=O)c4)c4ccccc43)[C@@H]2C)cc1` and give its recorded composite z-score.
[out] -0.104

[in] Consider the molecule `C[N+](C)(C)CCCCCCNC(=O)[C@H]1C[C@H]2C(=O)N[C@@H](Cc3ccccc3)C(=O)N2[C@H]1c1ccc(O)cc1` and give its recorded composite z-score.
[out] -0.137

[in] Consider the molecule `COc1ccc([Si](C)(C)[C@@H]2[C@@H](CC(=O)N3Cc4ccccc4C[C@H]3CO)O[C@]3(C(=O)N(Cc4cccc(N5C(=O)c6cccc7cccc5c67)c4)c4ccccc43)[C@H]2C)cc1` and give its recorded composite z-score.
[out] -0.0928
